Tested on: MDA-MB-231 breast
Assay: NCI-60 one-dose screen, 48 h (100 = growth as untreated, 0 = no growth, -100 = all killed)
Settings: 10 µM
Compounds without any hit were thinned out: in the full panel of roughly 83,000, 20% have a hit.
Everything with growth lower than 90% is -1; everything else, including exactly 90%, is 1.

Check this compound for growth at or above 90%: O=C(CC(c1ccccc1)N1CCOCC1)c1ccccc1 (configuration not stated) 1

Check this compound for growth at or above 90%: CCN(CC)CCOc1nc2ccccc2c2c1-c1ccc(OC)cc1C2=O -1

Check this compound for growth at or above 90%: COc1ccc2c(c1)sc1nc(-c3ccccc3)c(-c3cccnc3)n12 1

Check this compound for growth at or above 90%: CN1CCC2(CC1)NC(=O)c1c(c3ccc(Cl)c(Cl)c3n1C)C2C#N (configuration not stated) -1

Check this compound for growth at or above 90%: O=C(CCCCCCC(=O)Nc1cccnc1)NO -1

Check this compound for growth at or above 90%: O=C1OCC2=C1C(c1cccc(Cl)c1)c1cc3c(cc1N2CCO)OCCO3 (configuration not stated) -1

Check this compound for growth at or above 90%: N#Cc1ncc(Br)c(NC2CCCCCC2)n1 1

Check this compound for growth at or above 90%: Cc1cc2ccccc2nc1-c1ccccc1F 1

Check this compound for growth at or above 90%: O=C(CCCCC(=O)Nc1ccc2c(c1)/C(=C/c1ccc[nH]1)C(=O)N2)NO 1

Check this compound for growth at or above 90%: COc1ccc(/C=C/C(=O)Nc2ccc(-c3nc4ccc(F)cc4s3)cc2)cc1 1

Check this compound for growth at or above 90%: N=c1nc(N)ncn1-c1ccccc1 1

meta.source: PubChem BioAssay (NCI)
